# Conditions: 348.15 K; 101.33 kPa; Liquid; Vibrating tube method
± gives the expanded uncertainty stated by the source.
# mass density values compiled below

Compound: CCCCn1cc[n+](C)c1.O=S(=O)([O-])C(F)(F)C(F)OC(F)(F)C(F)(F)F (centres undefined)
mass density: 1372 ± 4 kg/m3
//
Compound: CCCC[n+]1cccc(C)c1.O=S(=O)([N-]S(=O)(=O)C(F)(F)F)C(F)(F)F
mass density: 1367 ± 3 kg/m3
//
Compound: CCCCn1cc[n+](C)c1.O=S(=O)([O-])C(F)(F)C(F)(F)OC(F)C(F)(F)F (centres undefined)
mass density: 1401 ± 4 kg/m3
//
Compound: CCC[n+]1cccc(C)c1.O=S(=O)([N-]S(=O)(=O)C(F)(F)F)C(F)(F)F
mass density: 1397 ± 3 kg/m3
//
Compound: CCCC[n+]1ccn(C)c1.O=S(=O)([O-])C(F)(F)C(F)C(F)(F)F (centres undefined)
mass density: 1364 ± 4 kg/m3
//
Compound: CCn1cc[n+](C)c1.O=S(=O)([N-]S(=O)(=O)C(F)(F)F)C(F)(F)F
mass density: 1467 ± 4 kg/m3
//
Compound: CCCn1cc[n+](C)c1C.O=S(=O)([C-](S(=O)(=O)C(F)(F)F)S(=O)(=O)C(F)(F)F)C(F)(F)F
mass density: 1567 ± 3 kg/m3
//
Compound: CCCCn1cc[n+](C)c1.O=S(=O)([O-])C(F)(F)C(F)OC(F)(F)F (centres undefined)
mass density: 1345 ± 4 kg/m3
//
Compound: CCn1cc[n+](C)c1.O=S(=O)([N-]S(=O)(=O)C(F)(F)C(F)(F)F)C(F)(F)C(F)(F)F
mass density: 1534 ± 3 kg/m3
